Data provenance is patent US7649002B2.

The compounds listed here are annotated with their pEC50.
- test-system: human MCR4 receptor (Homo sapiens)
- Construct: expressed in transfected cells
- method: MCR4 improved functional assay (Protocol E): CHO-K1-MC4R-CRE-β-lactamase reporter
- Type: cell-based
- condition-description: Protocols C or E, read-out: functional potency at the MC4 receptor (EC50)
pEC50: −log10 of the molar value. Structures can show the parent of a compound that is named as a salt.

Example compounds with recorded pEC50:
compound: C[C@@H]1CN(C(=O)[C@@H]2CN(C(C)(C)C)C[C@H]2c2ccc(F)cc2F)C[C@H](C)[C@@]1(O)c1ccccn1.Cl [Example 22, hydrochloride]
test-system: human MCR4 receptor (Homo sapiens)
pEC50: > 7.30
//
compound: CC(C)N1C[C@@H](C(=O)N2C[C@@H](C)[C@](O)(c3ccc(F)c(F)c3)[C@@H](C)C2)[C@H](c2ccc(F)cc2F)C1 [Example 51, hydrochloride]
test-system: human MCR4 receptor (Homo sapiens)
pEC50: > 7.30
//
compound: C[C@@H]1CN(C(=O)[C@@H]2CN(c3cccnn3)C[C@H]2c2ccc(F)cc2F)C[C@H](C)[C@@]1(O)c1ccccc1.Cl [Example 35, hydrochloride]
test-system: human MCR4 receptor (Homo sapiens)
pEC50: > 8.00

QUERY: Report measured pEC50; entry is C[C@@H]1CN(C(=O)[C@@H]2CNC[C@H]2c2ccc(F)cc2F)C[C@H](C)[C@@]1(O)c1ccc(F)cc1.Cl [Example 12, hydrochloride]
RESULT: > 6.82

QUERY: Please look at this compound and report its pEC50: C[C@@H]1CN(C(=O)[C@@H]2CN(C(C)(C)C)C[C@H]2c2ccc(F)cc2F)C[C@H](C)[C@@]1(O)c1ccccc1.Cl [Example 5, hydrochloride]
RESULT: > 8.00

QUERY: Report measured pEC50; entry is CC(C)N1C[C@@H](C(=O)N2C[C@@H](C)[C@](O)(c3ccc(F)cc3F)[C@@H](C)C2)[C@H](c2ccc(F)cc2F)C1 [Example 52, hydrochloride]
RESULT: > 7.30

QUERY: Note down pEC50 recorded for C[C@@H]1CN(C(=O)[C@@H]2CN(c3cccnn3)C[C@H]2c2ccc(F)cc2F)C[C@H](C)[C@@]1(O)c1ccccn1 [Example 47, hydrochloride]
RESULT: > 8.00

====

- test-system: human MCR1 receptor (Homo sapiens)
- Construct: expressed in transfected cells
- Sequence (Q01726 whole entry): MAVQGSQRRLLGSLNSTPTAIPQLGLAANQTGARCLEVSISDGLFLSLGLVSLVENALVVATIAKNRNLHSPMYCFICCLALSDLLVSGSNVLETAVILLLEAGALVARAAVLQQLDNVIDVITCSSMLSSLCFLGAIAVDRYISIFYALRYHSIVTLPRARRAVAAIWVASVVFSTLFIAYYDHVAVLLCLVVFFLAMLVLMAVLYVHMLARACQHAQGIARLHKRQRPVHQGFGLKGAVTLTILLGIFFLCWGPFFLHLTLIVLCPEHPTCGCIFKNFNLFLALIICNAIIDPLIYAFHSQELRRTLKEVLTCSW
- method: MCR1 standard functional assay (Protocol A): cAMP AlphaScreen in HEK cells
- Assay type: cell-based
- condition-description: Table 5; Protocol A
property-measured: EC50
Number first, unit second.

QUERY: Give recorded EC50. C[C@@H]1CN(C(=O)[C@@H]2CN(C(C)(C)C)C[C@H]2c2ccc(F)cc2F)C[C@H](C)[C@@]1(O)c1ccccc1
RESULT: 8.1 µM

====

- test-system: human MCR4 receptor (Homo sapiens, UniProt P32245)
- Construct: expressed in transfected cells
- Sequence (P32245 whole entry): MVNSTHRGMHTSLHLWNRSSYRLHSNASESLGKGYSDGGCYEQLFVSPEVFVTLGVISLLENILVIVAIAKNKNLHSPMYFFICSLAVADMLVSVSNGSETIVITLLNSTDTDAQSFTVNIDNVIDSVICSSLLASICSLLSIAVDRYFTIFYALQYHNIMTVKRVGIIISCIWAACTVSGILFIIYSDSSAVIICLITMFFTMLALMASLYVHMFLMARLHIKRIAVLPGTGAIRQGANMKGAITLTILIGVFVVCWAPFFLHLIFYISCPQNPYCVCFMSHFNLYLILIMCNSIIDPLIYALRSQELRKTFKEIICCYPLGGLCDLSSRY
- method: MCR4 improved functional assay (Protocol E): CHO-K1-MC4R-CRE-β-lactamase reporter
- Format: cell-based
- condition-description: Protocols C or E, read-out: functional potency at the MC4 receptor (EC50)
- Excerpt: (ii) MCR5 Standard Functional Assay Methodology and MCR4 Improved Functional Assay Methodology [Assay Protocol D and E Respectively] […] The quantity of β-lactamase enzyme produced was directly proportional to the degree to which the test compound activated the MCR5 or MCR4 receptors present on these cells and was quantified using the P-lactamase gene reporter analysis kit that is commercially available from Invitrogen Life Technologies. […]
pEC50: −log10 of the molar value. Where a name gives a salt, the structure may show the parent alone.
This section presents molecules with their documented pEC50 values.

Below, 5 molecules whose answers are already recorded.
molecule: C[C@@H]1CN(C(=O)[C@@H]2CN(c3ccncn3)C[C@H]2c2ccc(F)cc2F)C[C@H](C)[C@@]1(O)c1ccccc1 [Example 42, hydrochloride]
pEC50: > 8.00
//
molecule: C[C@@H]1CN(C(=O)[C@@H]2CNC[C@H]2c2ccc(F)cc2F)C[C@H](C)[C@@]1(O)c1cccc(F)c1 [Example 20, hydrochloride]
pEC50: > 6.82
//
molecule: C[C@@H]1CN(C(=O)[C@@H]2CN(c3cncnc3)C[C@H]2c2ccc(F)cc2F)C[C@H](C)[C@@]1(O)c1ccccc1 [Example 36, hydrochloride]
pEC50: > 6.82
//
molecule: C[C@@H]1CN(C(=O)[C@@H]2CN(C(C)(C)C)C[C@H]2c2ccc(F)cc2F)C[C@H](C)[C@@]1(O)c1ccc(Cl)cc1.Cl [Example 13, hydrochloride]
pEC50: > 7.30
//
molecule: C[C@@H]1CN(C(=O)[C@@H]2CN(C(C)(C)C)C[C@H]2c2ccc(F)cc2F)C[C@H](C)[C@@]1(O)c1ccc(F)cc1 [Example 9, hydrochloride]
pEC50: > 8.00

Below: the item to evaluate.
QUERY: Identify measured pEC50 associated with CC(C)N1C[C@@H](C(=O)N2C[C@@H](C)[C@](O)(c3ccc(F)cc3)[C@@H](C)C2)[C@H](c2ccc(F)cc2F)C1 [Example 10, hydrochloride]
RESULT: > 6.82
